Biological target: T1, hRET.mFc (human)
T1 construct: also called dimeric human RET
Assay: SPR Biacore T200, mAb capture, 25 C
observable: koff (s⁻¹)
Quick reminder: number only, in s⁻¹, skip the unit.

Problem: Given the entry H4H8071P (antibody, human IgG4, V domains shown, human IgG4 Fc (H4H prefix)) VH: EVQLVESGGGLVQPGGSLRLSCAASGFTFTTYFMSWVRQAPGKGLEWVSGISGSGTSTFYVDSMKGRFTISRDNSKNTLYLQMNSLRVEDTAVYFCAKENTYGHFDFWGQGTLVTVSS VL: DIQLTQSPSFLSASVGDRVTITCWASQDISSHLAWYQQKPGKAPKVLIYDASTLQSGVPSRISGSGSGTEFTLTISSLQPEDFAAYYCQQLDGYPYTFGQGTKLEIK , report its measured koff.
Result: 0.000179
